- subject.of.test: α1G T-type calcium channels (Homo sapiens, UniProt O43497)
- Construct: host or cells: HEK293
- Sequence (O43497 whole entry): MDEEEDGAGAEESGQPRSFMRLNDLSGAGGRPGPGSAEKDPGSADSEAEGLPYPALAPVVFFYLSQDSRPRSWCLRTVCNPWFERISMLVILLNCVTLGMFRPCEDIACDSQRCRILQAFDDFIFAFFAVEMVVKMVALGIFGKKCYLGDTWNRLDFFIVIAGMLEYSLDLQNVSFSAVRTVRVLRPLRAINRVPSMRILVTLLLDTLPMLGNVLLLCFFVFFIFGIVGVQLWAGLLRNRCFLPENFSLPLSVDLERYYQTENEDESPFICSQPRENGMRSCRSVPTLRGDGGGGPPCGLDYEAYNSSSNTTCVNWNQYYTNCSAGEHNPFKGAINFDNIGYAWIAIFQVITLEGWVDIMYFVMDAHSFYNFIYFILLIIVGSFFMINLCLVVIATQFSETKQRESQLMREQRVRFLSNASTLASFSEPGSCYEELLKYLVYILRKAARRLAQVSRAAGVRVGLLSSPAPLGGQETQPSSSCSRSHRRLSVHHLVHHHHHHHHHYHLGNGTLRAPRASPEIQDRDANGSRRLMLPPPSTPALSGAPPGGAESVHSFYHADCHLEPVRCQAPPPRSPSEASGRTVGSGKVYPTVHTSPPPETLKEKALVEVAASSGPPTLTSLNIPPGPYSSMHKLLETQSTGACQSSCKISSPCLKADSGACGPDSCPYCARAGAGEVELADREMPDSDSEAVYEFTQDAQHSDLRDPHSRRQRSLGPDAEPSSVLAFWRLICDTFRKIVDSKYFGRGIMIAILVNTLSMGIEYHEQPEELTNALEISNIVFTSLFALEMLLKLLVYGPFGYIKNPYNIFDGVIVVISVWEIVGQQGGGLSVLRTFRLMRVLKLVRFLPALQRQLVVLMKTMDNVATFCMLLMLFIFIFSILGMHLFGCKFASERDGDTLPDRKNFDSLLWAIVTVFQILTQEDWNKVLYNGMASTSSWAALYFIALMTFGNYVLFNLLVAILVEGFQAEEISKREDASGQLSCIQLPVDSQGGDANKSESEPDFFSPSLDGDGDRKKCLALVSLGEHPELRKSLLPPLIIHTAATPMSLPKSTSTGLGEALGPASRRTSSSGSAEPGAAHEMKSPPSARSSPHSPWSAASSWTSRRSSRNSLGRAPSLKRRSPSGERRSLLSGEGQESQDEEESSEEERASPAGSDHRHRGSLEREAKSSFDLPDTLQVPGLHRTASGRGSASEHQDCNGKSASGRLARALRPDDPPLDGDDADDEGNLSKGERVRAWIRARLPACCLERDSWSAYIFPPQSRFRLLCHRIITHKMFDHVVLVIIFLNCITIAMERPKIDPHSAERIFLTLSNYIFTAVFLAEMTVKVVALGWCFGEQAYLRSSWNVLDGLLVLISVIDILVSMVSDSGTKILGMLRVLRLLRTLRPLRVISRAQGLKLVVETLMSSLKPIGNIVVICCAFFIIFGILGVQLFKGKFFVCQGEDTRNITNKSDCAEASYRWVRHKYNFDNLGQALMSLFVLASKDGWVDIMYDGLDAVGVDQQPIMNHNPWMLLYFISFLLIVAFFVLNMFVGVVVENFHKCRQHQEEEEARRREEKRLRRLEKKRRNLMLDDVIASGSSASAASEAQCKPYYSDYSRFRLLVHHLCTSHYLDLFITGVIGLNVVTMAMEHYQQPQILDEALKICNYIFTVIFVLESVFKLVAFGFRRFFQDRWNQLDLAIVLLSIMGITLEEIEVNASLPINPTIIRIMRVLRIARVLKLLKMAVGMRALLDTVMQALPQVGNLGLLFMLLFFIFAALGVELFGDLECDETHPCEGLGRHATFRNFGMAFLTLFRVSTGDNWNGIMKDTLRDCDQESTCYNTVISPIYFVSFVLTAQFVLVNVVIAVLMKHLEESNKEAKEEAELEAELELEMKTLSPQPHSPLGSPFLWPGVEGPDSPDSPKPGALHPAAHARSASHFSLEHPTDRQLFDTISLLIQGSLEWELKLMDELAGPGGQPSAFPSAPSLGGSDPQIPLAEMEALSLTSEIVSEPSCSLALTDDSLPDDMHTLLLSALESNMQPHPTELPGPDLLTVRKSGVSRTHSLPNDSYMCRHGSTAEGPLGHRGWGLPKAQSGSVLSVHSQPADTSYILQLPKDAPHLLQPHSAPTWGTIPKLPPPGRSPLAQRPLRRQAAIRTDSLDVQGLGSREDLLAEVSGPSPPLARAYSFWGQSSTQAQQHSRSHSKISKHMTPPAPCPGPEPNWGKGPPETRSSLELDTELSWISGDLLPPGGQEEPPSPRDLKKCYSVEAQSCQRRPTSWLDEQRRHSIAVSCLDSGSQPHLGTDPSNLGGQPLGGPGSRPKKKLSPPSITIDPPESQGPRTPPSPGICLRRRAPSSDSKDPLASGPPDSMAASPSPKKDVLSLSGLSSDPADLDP
- procedure.text: T-type calcium channel activity using the FDSS6000 (HTS, Fluo-3/AM, KCl-induced intracellular calcium change)
- Assay type: cell-based
- condition.info: percent inhibition at 10 μM; HEK293 cells stably expressing α1G T-type calcium channels and Kir2.1; KCl 75 mM activation; read-out: FDSS (%, 10 μM)
measurement.name: inhibition at 10 µM (%)

Worked examples follow.
Exercise: Specify inhibition at 10 µM for `COc1ccc(CN2CCN(CCNC(=O)CCn3ccnc3C)CC2)cc1` , system α1G T-type calcium channels (Homo sapiens, UniProt O43497).
Key: 33.8

Exercise: Specify inhibition at 10 µM for `O=C(CCn1ccnc1-c1ccccc1)NCCN1CCN(c2ccc(F)cc2)CC1` , system α1G T-type calcium channels (Homo sapiens, UniProt O43497).
Key: 49.8

Exercise: Specify inhibition at 10 µM for `O=C(CCn1cnc(-c2ccccc2)c1)N1CCN(c2ccccc2F)CC1` , system α1G T-type calcium channels (Homo sapiens, UniProt O43497).
Key: 45.2

Exercise: Specify inhibition at 10 µM for `O=C(CCn1cnc(-c2ccccc2)c1)N1CCN(c2ccccc2)CC1` , system α1G T-type calcium channels (Homo sapiens, UniProt O43497).
Key: 42.2

Exercise: Specify inhibition at 10 µM for `Cc1cccc(N2CCN(C(=O)CCn3ccnc3-c3ccccc3)CC2)c1C` , system α1G T-type calcium channels (Homo sapiens, UniProt O43497).
Key: 34.4

I = O=C(CCn1cnc(-c2ccccc2)c1)NCCN1CCN(c2ccc(F)cc2)CC1
II = O=C(CCn1cnc(-c2ccccc2)c1)N1CCN(Cc2ccc(Cl)cc2)CC1
Exercise: compare I and II ; which one has the greater inhibition at 10 µM? Which one? Tell me its label.
Key: II
